The measurements presented in this section are drawn from PubChem BioAssay.

assay: COS7 lysate on small-molecule microarray, probe aHis, 635 nm (AID 1123); conditions: COS7 cell lysate, fluorescence, higher = more signal;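 further: z-score combines 667nm fluorescence intensity with signal-to-noise per printed compound spot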

- COMPOUND: "OCCCC1=CC(c2cccs2)N(Cc2cccc(OC(F)(F)F)c2)CC1 (centres undefined)"
  composite z-score: 0.0426
- COMPOUND: "C=CCC(OC(C)=O)[C@@H]1[C@@H](N(Cc2cccc3ccccc23)C(=O)Cc2ccc(F)cc2)c2cc(OCCCO)ccc2N1C(=O)Cc1ccc(OC)cc1 (some centres undefined)"
  composite z-score: -0.0343
- COMPOUND: "CC(C)=CCCC(C)=CC(O)C1C=CC2C(=O)N(c3ccccc3)C(=O)C2N1Nc1ccc([N+](=O)[O-])cc1 (centres undefined)"
  composite z-score: 2.77
- COMPOUND: "O=C1C2C=CC(C(O)c3cccc4ccccc34)N(Nc3ccccc3)C2C(=O)N1c1ccccc1 (centres undefined)"
  composite z-score: 2.28

----------
experiment: growth effects on S. cerevisiae YJM789 – YJM789 clinical isolate, OD600, 24 h, basal, primary screen (AID 1089); details: higher = more signal, called active from +8 up or from −8 down;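 further: growth of clinical yeast isolate S. cerevisiae YJM 789 seeded 1000 cells per well; test concentration not given here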
Reported z-score values follow for various compounds
MEASUREMENT_NAME: z-score

- COMPOUND: "COCCOC(=O)N1C(=O)[C@@]2(c3cc(C#CC4(O)CCCCCC4)ccc31)[C@H](C(=O)N1CCc3cc(OC)c(OC)cc3C1)[C@H]1C(=O)O[C@H](c3ccccc3)[C@H](c3ccccc3)N1[C@@H]2c1ccccc1OCCO"
  MEASUREMENT_NAME: "z-score"
  OBS_VALUE: 2.29
- COMPOUND: "COCCOC(=O)N1C(=O)[C@@]2(c3cc(C#CCCO)ccc31)[C@H](C(=O)N1CCc3cc(OC)c(OC)cc3C1)[C@H]1C(=O)O[C@H](c3ccccc3)[C@H](c3ccccc3)N1[C@@H]2c1ccc(OCCO)cc1"
  MEASUREMENT_NAME: "z-score"
  OBS_VALUE: -1.17
- COMPOUND: "Cc1ccc(S[C@]2(C(=O)NCC(C)C)CC(=O)N(C3CCCCC3)[C@@H]2c2ccc(CO)cc2I)cc1"
  MEASUREMENT_NAME: "z-score"
  OBS_VALUE: -0.525
- COMPOUND: "O=C(N1CCOCC1)[C@@]1(CCS(=O)(=O)c2ccccc2)COC(c2ccc(OCCCO)cc2)=N1"
  MEASUREMENT_NAME: "z-score"
  OBS_VALUE: 0.0962
- COMPOUND: "O=C1NC(=O)C2C1C=CC(C(O)c1ccc(-c3ccccc3)s1)N2Nc1ccccn1 (configuration not stated)"
  MEASUREMENT_NAME: "z-score"
  OBS_VALUE: -0.3
- COMPOUND: "CC[C@@H]1[C@@H]2C3C(=O)N(CC)C(=O)C3CC(=O)[C@@H]2[C@H](c2ccc(C)cc2)N1S(=O)(=O)c1ccc(C)cc1 (some centres not stated)"
  MEASUREMENT_NAME: "z-score"
  OBS_VALUE: -2.69
- COMPOUND: "CCOC(=O)C[C@H]1[C@H](OC(=O)c2cc3ccccc3oc2=O)[C@@H](NC(=O)c2ccc3ccccc3n2)c2cc(OCCCO)ccc2N1C(=O)c1ccc2ccccc2n1"
  MEASUREMENT_NAME: "z-score"
  OBS_VALUE: -0.157

----------
test system: Noggin (protein binding on small-molecule microarray); test: small molecules binding Noggin protein – biochemical, 635/667 nm fluorescence, primary screen (AID 1095); details: 635 nm fluorescence, higher = more signal;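 further: score merges 667 nm feature fluorescence with signal to noise over triplicate slides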
MEASUREMENT_NAME: composite z-score

- COMPOUND: "Cc1cc(C)c(C(O)C2C=CC3C(=O)N(c4ccccc4)C(=O)C3N2Nc2ccc([N+](=O)[O-])cc2)c(C)c1 (stereo not drawn)"
  MEASUREMENT_NAME: "composite z-score"
  OBS_VALUE: 0.525
- COMPOUND: "O=C1O[C@H](c2ccccc2)[C@H](c2ccccc2)N2[C@H]1[C@@H](C(=O)N1CCN(c3ncccn3)CC1)[C@]1(C(=O)Nc3ccc(C#CCCO)cc31)[C@H]2c1ccccc1OCCO"
  MEASUREMENT_NAME: "composite z-score"
  OBS_VALUE: 0.942
- COMPOUND: "CC(C)CCC[C@@H](C)[C@H]1CC[C@@]2(C)C3=C(CC[C@]12C)[C@@]1(C)CC[C@H](OC(=O)c2ccc(N)cc2)C(C)(C)C1CC3 (stereo partly drawn)"
  MEASUREMENT_NAME: "composite z-score"
  OBS_VALUE: 0.434

----------
molecular target: Torsin-1A (Homo sapiens) (UniProt O14656); test: TOR1A wild-type binding on microarray – cell lysate, small-molecule microarray, lysate, 635/667 nm, primary screen (AID 1149); conditions: COS7 hTOR1A-WT lysate, 635 nm fluorescence, higher = more signal
Sequence (O14656 whole entry, looked up): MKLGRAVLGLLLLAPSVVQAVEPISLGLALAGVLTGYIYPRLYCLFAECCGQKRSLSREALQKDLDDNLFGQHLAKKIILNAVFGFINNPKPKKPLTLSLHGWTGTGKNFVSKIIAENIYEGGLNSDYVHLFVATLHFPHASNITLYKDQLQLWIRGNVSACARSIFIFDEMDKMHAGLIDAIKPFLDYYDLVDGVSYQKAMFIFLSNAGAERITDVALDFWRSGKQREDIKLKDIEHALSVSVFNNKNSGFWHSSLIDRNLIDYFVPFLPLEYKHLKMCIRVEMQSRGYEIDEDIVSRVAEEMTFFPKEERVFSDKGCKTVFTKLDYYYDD
MEASUREMENT_NAME: composite z-score

- MOLECULE: "CCCC[C@@H](O)C1=C(COc2ccccc2)Cn2c(=O)n(-c3ccccc3)c(=O)n2[C@H]1CO"
  OBS_VALUE: -0.218
- MOLECULE: "C=CCOC(=O)[C@@H]1[C@H]2C(=O)O[C@H](c3ccccc3)[C@H](c3ccccc3)N2[C@H](c2ccc(OCCOC(=O)[C@@H]3C[C@@H]4C(=O)N5CCC[C@H]5C(=O)N4[C@@H]3c3cccc(OCCO)c3)cc2)[C@@]12C(=O)Nc1ccc(I)cc12"
  OBS_VALUE: 0.85
- MOLECULE: "COCCOC(=O)N1C(=O)[C@@]2(c3cc(C#CCCO)ccc31)[C@H](c1ccc(OCCO)cc1)N1[C@H](c3ccccc3)[C@H](c3ccccc3)OC(=O)[C@H]1[C@@H]2C(=O)N1CCc2cc(OC)c(OC)cc2C1"
  OBS_VALUE: 0.637
- MOLECULE: "COC(=O)[C@@]1(Cc2ccccc2)[C@H]2c3cc(C(=O)N4CCCC4)n(Cc4ccc(OC(F)(F)F)cc4)c3C[C@H]2CN1C(=O)c1ccccc1"
  OBS_VALUE: -0.429
- MOLECULE: "CCOC(=O)C[C@H]1[C@H](OC(=O)Cc2ccc3c(c2)OCO3)[C@@H](NC(=O)c2ccccc2)c2cc(OCCCO)ccc2N1C(=O)c1ccccc1"
  OBS_VALUE: 0.0229
- MOLECULE: "COC(=O)[C@@]1(Cc2ccccc2)[C@H]2c3cc(C(=O)N(C)C)n(Cc4ccc(O)c(OC)c4)c3C[C@H]2CN1C(=O)c1ccccc1"
  OBS_VALUE: 0.698
- MOLECULE: "COCCOC(=O)N1C(=O)[C@@]2(c3cc(C#Cc4ccc(OC)cc4)ccc31)[C@H](c1ccc(OCCO)cc1)N1[C@H](c3ccccc3)[C@H](c3ccccc3)OC(=O)[C@H]1[C@@H]2C(N)=O"
  OBS_VALUE: 0.428
- MOLECULE: "COC(=O)[C@@]1(Cc2ccc(OC)cc2)[C@H]2c3cc(C(=O)N(C)C)n(Cc4cc(C)n(C)n4)c3C[C@H]2CN1C(=O)c1ccccc1"
  OBS_VALUE: 0.638
- MOLECULE: "C#CCNS(=O)(=O)N(C)C"
  OBS_VALUE: 0.073
- MOLECULE: "C=C(/C(=C/C[C@@H](OC(C)=O)c1ccccc1OCCO)c1cnc2ccccc2c1)C(C)C"
  OBS_VALUE: 0.72
- MOLECULE: "C=CCOC(=O)[C@@H]1[C@H]2C(=O)O[C@H](c3ccccc3)[C@H](c3ccccc3)N2[C@H](c2ccc(OCCOC(=O)[C@H]3C[C@H]4C(=O)N[C@@H](Cc5ccccc5)C(=O)N4[C@H]3c3cccc(OCCO)c3)cc2)[C@@]12C(=O)Nc1ccc(I)cc12"
  OBS_VALUE: 0.787
- MOLECULE: "C[C@@]1([C@@H](NC(=O)c2cccs2)c2ccc(-c3ccccc3)cc2)C[C@H]1C1CCCCC1"
  OBS_VALUE: -1.24
- MOLECULE: "CC(C)c1ccc(NN2C(C(O)c3cccs3)C=CC3C(=O)N(c4ccccc4)C(=O)C32)cc1 (stereo not drawn)"
  OBS_VALUE: 0.248

----------
test: change in splice reporter luminescence, either direction, cell-based, HEK293, spliceosome inhibition project, primary screen (AID 1101); conditions: HEK293 splicing luciferase reporter, 24 h, higher = more signal, called active from +8 up or from −8 down;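 further: HEK293 cells carrying a splicing-competent luciferase reporter gene; test concentration not given here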
MEASUREMENT_NAME: z-score

- COMPOUND: "[N-]=[N+]=Nc1ccccc1[C@@H]1OC(c2ccc(OCCCO)cc2)=N[C@]1(CCS(=O)(=O)c1ccccc1)C(=O)NCc1ccccc1"
  OBS_VALUE: 0.385
- COMPOUND: "O=c1c2ccc(Br)cc2nc(-c2ccccc2)n1Cc1cccc(O)c1"
  OBS_VALUE: -0.376
- COMPOUND: "COc1ccc(C(=O)Nc2ccc3c(c2)[C@]2(O[C@@H](CCO)[C@H]([Si](C)(C)c4ccc(OC)cc4)[C@H]2C)C(=O)N3Cc2ccccc2)cc1"
  OBS_VALUE: -3.4
- COMPOUND: "O=C1OCCC=C[C@H]2OC34C=CCN(Cn5nnc6ccccc65)C(=O)[C@H]3N(CCCCCO)C(=O)[C@@H]4C12 (some centres undefined)"
  OBS_VALUE: 0.227
